Numbers sourced from the supplement of paper PMC10883282.

Examples of compounds with documented relative viability follow.
- System: HS729
- Assay Protocol: relative viability vs DMSO control (72 h) (fraction); higher = more viable cells
- Applied Conditions: 0.00457 µM
Lab note: jot the number down without any unit.

> print(dat)
                                   compound  observed.value
1  C1=N/C2=N/c3ccc(OCCN4CCCC4)c(c3)COC/C=C/COCc3cccc(c3)C(=C1)N2               1

Query: # relative viability lookup, item `CCN(CCCOc1ccc2c(Nc3cc(CC(=O)Nc4cccc(F)c4)[nH]n3)ncnc2c1)CCOP(=O)(O)O`
Reply: 0.936

Query: Now the compound `COc1cc2c(Oc3ccc4[nH]c(C)cc4c3F)ccnc2cc1OCC1(N)CC1`
Reply: 0.917

Query: Next compound up: `C[C@@H](Oc1cc(-c2cnn(C3CCNCC3)c2)cnc1N)c1c(Cl)ccc(F)c1Cl`
Reply: 0.98

Query: For `CC[C@@H]1C(=O)N(C)c2cnc(Nc3ccc(C(=O)N[C@H]4CC[C@H](N5CCN(CC6CC6)CC5)CC4)cc3OC)nc2N1C(C)C` then?
Reply: 0.954

Query: Please do the same for `CN(C)C[C@@H]1CCn2cc(c3ccccc32)C2=C(C(=O)NC2=O)c2cn(c3ccccc23)CCO1` as well.
Reply: 0.882

Query: Lookup `N#CCC1(n2cc(-c3ncnc4[nH]ccc34)cn2)CN(C2CCN(C(=O)c3ccnc(C(F)(F)F)c3F)CC2)C1`
Reply: 0.889

Query: // same read-out, input: `CNC(=O)c1cc(Oc2ccc(NC(=O)Nc3ccc(Cl)c(C(F)(F)F)c3)cc2)ccn1`
Reply: 0.978

Query: Note, next up: `Cc1c(F)cc(C(=O)NC2CC2)cc1-c1ccc(C(=O)NCC(C)(C)C)cn1`
Reply: 1.02

Query: Try `NC(=O)c1cccc2cn(-c3ccc([C@@H]4CCCNC4)cc3)nc12` next.
Reply: 0.89

Query: Further, for `C=CC(=O)Nc1cccc(Nc2nc(Nc3ccc(N4CCN(C(C)=O)CC4)cc3OC)ncc2C(F)(F)F)c1` ?
Reply: 0.921

Query: Subsequent entry: `Cc1cc(Nc2ncc(Cl)c(Nc3ccccc3S(=O)(=O)C(C)C)n2)c(OC(C)C)cc1C1CCNCC1`
Reply: 1.01

Query: For `N#Cc1ccnc(N2C(=O)CC[C@H]2C(=O)N(c2cncc(F)c2)[C@H](C(=O)NC2CC(F)(F)C2)c2ccccc2Cl)c1` then?
Reply: 1.01

Query: How about `COc1cc2nccc(Oc3ccc(NC(=O)NC4CC4)c(Cl)c3)c2cc1C(N)=O` ?
Reply: 1.04

* * *

- Tested on: SW1353
- Assay Protocol: relative viability vs DMSO control (72 h) (fraction); higher = more viable cells
- Applied Conditions: 0.1235 µM
Measure: relative viability
Output spec: single numeric token, no unit.

Solved entries:
> print(dat)
                                   molecule             measure  observed.value
1  Cc1c(F)cc(C(=O)NC2CC2)cc1-c1ccc(C(=O)NCC(C)(C)C)cn1 [Losmapimod]  relative viability            1.08
2  C#Cc1cccc(Nc2ncnc3cc(OCCOC)c(OCCOC)cc23)c1 [Erlotinib]  relative viability           0.955
3  COc1cc2ncnc(Nc3cccc(Cl)c3F)c2cc1OC(=O)N1CCN(C)C[C@H]1C [AZD-3759]  relative viability           0.979
4  NC(=O)c1cccc2cn(-c3ccc([C@@H]4CCCNC4)cc3)nc12 [Niraparib]  relative viability           0.956
5  Cc1ccc(NC(=O)c2ccc(CN3CCN(C)CC3)cc2)cc1Nc1nccc(-c2cccnc2)n1 [Imatinib]  relative viability           0.991

Now consider a different molecule.
Query: Given the entry C[C@@H]1COC(Nc2ccc3ncnc(Nc4ccc(OCc5nccs5)c(Cl)c4)c3c2)=N1 [Varlitinib] , what relative viability was observed with SW1353?
Reply: 0.947
